testedOn: S1P1 (membranes prepared from S1P1/CHO cells) (Homo sapiens (Human), UniProt P21453)
Sequence (P21453 whole entry): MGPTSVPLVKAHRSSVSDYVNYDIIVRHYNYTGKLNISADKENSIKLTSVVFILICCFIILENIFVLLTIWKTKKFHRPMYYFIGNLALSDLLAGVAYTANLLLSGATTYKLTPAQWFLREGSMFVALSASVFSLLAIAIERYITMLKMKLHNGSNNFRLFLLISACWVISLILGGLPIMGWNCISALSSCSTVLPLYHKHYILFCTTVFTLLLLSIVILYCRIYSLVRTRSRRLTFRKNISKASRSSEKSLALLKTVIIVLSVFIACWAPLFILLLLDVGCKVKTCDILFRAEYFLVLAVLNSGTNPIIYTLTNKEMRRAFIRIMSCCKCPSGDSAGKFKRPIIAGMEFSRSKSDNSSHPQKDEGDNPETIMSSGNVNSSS
experimentSummary: Receptor [35S] GTPγS binding assay (S1P1 GTPγS)
Type: biochemical
conditionSummary: phosphate examples; read-out: S1P1 GTPγS
Overview of recorded EC50 for various compounds

Some compounds with known EC50 results, for comparison:
| compound | testedOn | measuredAttribute | endpointResult |
| --- | --- | --- | --- |
| COc1cccc(CO[C@H]2CCc3cc([C@H]4CC[C@](N)(COP(=O)(O)O)C4)ccc3C2)c1 [compound 442] | S1P1 (membranes prepared from S1P1/CHO cells) (Homo sapiens (Human), UniProt P21453) | EC50 | < 10 nM |
| CCSCC[C@@H]1CCc2cc([C@H]3CC[C@](N)(COP(=O)(O)O)C3)ccc2C1 [compound 533] | S1P1 (membranes prepared from S1P1/CHO cells) (Homo sapiens (Human), UniProt P21453) | EC50 | < 10 nM |
| CC(C)CCOCCO[C@H]1CCc2cc([C@H]3CC[C@](N)(COP(=O)(O)O)C3)ccc2C1 [compound 587] | S1P1 (membranes prepared from S1P1/CHO cells) (Homo sapiens (Human), UniProt P21453) | EC50 | 10 to 100 nM |

Name the recorded EC50 for COCCCCC[C@H]1CCc2cc([C@@H]3CC[C@@](N)(COP(=O)(O)O)C3)ccc2C1 [compound 598] .
10 to 100 nM

Can you check COc1cc(OC[C@@H]2CCc3cc([C@H]4CC[C@](N)(COP(=O)(O)O)C4)ccc3C2)ccc1F [compound 485] next?
10 to 100 nM
